Test system: HCT-116
Test: NCI tumour cell line growth inhibition, 48 h
Active and inactive are the calls of the source. No stated cut-off is given here; in the data, active = GI50 up to about 1.1 µM and inactive = higher.
Please answer using one outcome listed in Y for active, N for inactive

Problem: Please indicate how the test categorized N#CCCN(CCC#N)c1ccc(/C=C2\N=C(c3cc([N+](=O)[O-])ccc3Cl)N(NC(=O)CC(=O)Nc3ccccc3Cl)C2=O)cc1 .
Solution: N

Problem: Please do the same for CCOC(=O)c1c(C)n(C)c2c1cc(O)c1[nH]c3c(c12)CCCC3 as well.
Solution: N

Problem: Please do the same for [N-]=[N+]=NC1(Cc2ccccc2)C(=O)Nc2ccccc2C1=O (centres undefined) as well.
Solution: N

Problem: Please do the same for C[N+](C)(CCNC(=O)c1cccc2cc3ccccc3nc12)Cc1ccc([N+](=O)[O-])cc1 as well.
Solution: N

Problem: Please do the same for CN(C)CCNCc1ccc2c(-c3ccccc3)nc3cc(Cl)c(Cl)cc3n12 as well.
Solution: N

Problem: Please do the same for O=C(CC(=O)Nc1ccccc1)NNC(c1cc(/N=N/c2ccc(Br)cc2)ccc1O)P(O)O (centres undefined) as well.
Solution: Y

Problem: Please do the same for Cc1n[n+]([O-])c(C)cc1[N+](=O)[O-] as well.
Solution: N

Problem: Please do the same for COc1cc(CCCC(O)COc2cccc3c2C2(O)CCCCCC32)cc(OC)c1 (centres undefined) as well.
Solution: N

Problem: Please do the same for CCN(CC)CC(=O)Nc1c(C(N)=O)nnn1Cc1cc(Cl)c(C(=O)c2ccc(Cl)cc2)c(Cl)c1 as well.
Solution: N
